Biological target: UniProtKB P29275
Sequence (P29275 whole entry): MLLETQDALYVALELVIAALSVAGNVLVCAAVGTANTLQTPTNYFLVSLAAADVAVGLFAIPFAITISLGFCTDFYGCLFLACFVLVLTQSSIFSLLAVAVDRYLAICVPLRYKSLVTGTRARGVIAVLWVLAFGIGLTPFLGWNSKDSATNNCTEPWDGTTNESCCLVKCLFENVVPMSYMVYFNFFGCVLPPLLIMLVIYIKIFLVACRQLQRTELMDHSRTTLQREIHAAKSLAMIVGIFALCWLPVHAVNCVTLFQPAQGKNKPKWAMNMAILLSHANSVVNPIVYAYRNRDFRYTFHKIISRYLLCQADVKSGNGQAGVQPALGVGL
Experiment: cAMP inhibition assay in hA2b/CHO cells
Type: cell-based
Settings: adenosine stimulation, read-out: cAMP & FLIPR IC50 (nM) hA2b
Known log10 IC50 of a selection of molecules
Result type: log10 IC50 (log10 of the value in nM)

| Molecule | Target entity | log10 IC50 |
| --- | --- | --- |
| Cn1cc(-c2c(Cl)nc(N)n3nc(Cc4c(F)cccc4F)nc23)ccc1=O | UniProtKB P29275 | 3.81 |
| Cc1nc(Cc2nc3c(-c4ccc5nccn5c4)c(-c4ccc(F)cc4)nc(N)n3n2)cs1 | UniProtKB P29275 | 2.79 |
| COc1ccc(-c2nc(N)n3nc(Cc4ncccc4F)nc3c2-c2ccc(=O)n(C)c2)cc1 | UniProtKB P29275 | 2.09 |
| Cc1cnc2ccc(-c3c(N4CCC4)nc(N)n4nc(Cc5c(F)cccc5F)nc34)cn12 | UniProtKB P29275 | 1.37 |
| Cc1cc(-c2c(-c3ccc(F)cc3)nc(N)n3nc(Cc4ncccc4F)nc23)ccn1 | UniProtKB P29275 | 1.86 |
| Cc1cnc2ccc(-c3c(-n4cc(F)cn4)nc(N)n4nc(Cc5ncccc5F)nc34)cn12 | UniProtKB P29275 | 1.21 |
| Cn1cnc2ccc(-c3c(-c4ccc(F)cc4)nc(N)n4nc(Cc5ncccc5F)nc34)cc21 | UniProtKB P29275 | 0.67 |
| COc1ccccc1-c1nc(N)n2nc(Cc3ncccc3F)nc2c1-c1ccc(=O)n(C)c1 | UniProtKB P29275 | 3.19 |
| Cc1cc(-c2c(-c3ccc(F)cc3)nc(N)n3nc(C(C)c4c(F)cccc4F)nc23)ccn1 (stereo not shown) | UniProtKB P29275 | 3.70 |
| Cn1cc(-c2c(-c3ccc(F)cc3)nc(N)n3nc(Cc4ncccc4OC(F)F)nc23)ccc1=O | UniProtKB P29275 | 1.92 |
| Cc1cc(-c2c(-c3ncco3)nc(N)n3nc(Cc4c(F)cccc4F)nc23)cc(C#N)n1 | UniProtKB P29275 | 4.00 |
| Cc1cc(-c2c(-c3ccc(F)cc3)nc(N)n3nc(Cc4nccs4)nc23)ccn1 | UniProtKB P29275 | 2.34 |
| Cc1cnc2ccc(-c3c(-n4ccc(F)n4)nc(N)n4nc(Cc5ncccc5F)nc34)cn12 | UniProtKB P29275 | 1.09 |
| Cc1cc(-c2c(-c3ccc(F)cc3)nc(N)n3nc(Cc4cccc(C#N)n4)nc23)ccn1 | UniProtKB P29275 | 2.48 |
| Cc1cnc2ccc(-c3c(N4CCCC4)nc(N)n4nc(Cc5ncccc5F)nc34)cn12 | UniProtKB P29275 | 2.31 |
| Cc1c(-c2c(-c3ccc(F)cc3)nc(N)n3nc(Cc4ncccc4F)nc23)ccc(=O)n1C | UniProtKB P29275 | 2.04 |
